Test system: reconstructed human corneal epithelium model (SkinEthic™ HCE)
Conditions: solid product applied pure in powder form, 30±2 mg; first of three index values
reportedProperty: Irritation INDEX
Keep the answer to the number alone.

{"compound": "O=C(Nc1ccc(Cl)cc1)Nc1ccc(Cl)c(Cl)c1", "Irritation INDEX": 0}
{"compound": "CC(C)(O)CCC(C)(C)O", "Irritation INDEX": 22}
{"compound": "F[B-](F)(F)F.[K+] [Potassium tetrafluoroborate]", "Irritation INDEX": 4}

# ---- query compound ----
Lookup: GET Irritation INDEX | system: reconstructed human corneal epithelium model (SkinEthic™ HCE) | item: `CCOc1ccc(Br)cc1`
Found: 2

* * *

Test system: reconstructed human corneal epithelium model (SkinEthic™ HCE)
Settings: classification from the Solid Irritation Index

{"molecule": "CCOc1ccc(Br)cc1 [4-Bromophenetol]", "testTarget": "reconstructed human corneal epithelium model (SkinEthic™ HCE)", "EIT prediction": "No Cat"}
{"molecule": "F[B-](F)(F)F.[K+] [Potassium tetrafluoroborate]", "testTarget": "reconstructed human corneal epithelium model (SkinEthic™ HCE)", "EIT prediction": "No Cat"}
{"molecule": "O=C(Nc1ccc(Cl)cc1)Nc1ccc(Cl)c(Cl)c1", "testTarget": "reconstructed human corneal epithelium model (SkinEthic™ HCE)", "EIT prediction": "No Cat"}
{"molecule": "CC(C)(O)CCC(C)(C)O", "testTarget": "reconstructed human corneal epithelium model (SkinEthic™ HCE)", "EIT prediction": "Cat 1"}

* * *

Test system: reconstructed human corneal epithelium model (SkinEthic™ HCE)
Conditions: solid product applied pure in powder form, 30±2 mg; third of three index values
Measured Irritation INDEX, listed per entry.
Keep the answer to the number alone.

Solved entries (count: 3):
{"compound": "O=C(Nc1ccc(Cl)cc1)Nc1ccc(Cl)c(Cl)c1", "Irritation INDEX": 1}
{"compound": "CCOc1ccc(Br)cc1", "Irritation INDEX": 3}
{"compound": "CC(C)(O)CCC(C)(C)O", "Irritation INDEX": 21}

Lookup: Tell me measured Irritation INDEX for F[B-](F)(F)F.[K+] [Potassium tetrafluoroborate] please.
Found: 2

* * *

Tested on: reconstructed human corneal epithelium model (SkinEthic™ HCE)
Details: human, 10 min
Description: The reconstructed human corneal epithelium model, (SkinEthic™ HCE) was purchased from Episkin in Lyon. The model consists of immortalized human corneal epithelial cells grown in a defined medium at the air-liquid interface. The tissue structure obtained is a multi-layer epithelium similar to the natural tissue structure of the human cornea, comprising 5-7 layers with a surface area of 0.5 cm^2. […] The sample is mixed on a vortex mixer. Turbidity and possible phase separation are assessed by eye. […]
Marks after values point to notes of the source that are not given here.
reportedProperty: EIT prediction

Solved entries (count: 6):
{"compound": "CC(O)C(=O)O (stereo not shown) [Lactic acid]", "reportedProperty": "EIT prediction", "observed": "Cat 1"}
{"compound": "O=C(Cl)c1c(Cl)cccc1Cl [2,6-Dichlorobenzoyl chloride]", "reportedProperty": "EIT prediction", "observed": "Cat 2"}
{"compound": "C=CC(=O)OCCOCCOCCOCCOC(=O)C=C [Tetraethylene glycol diacrylate]", "reportedProperty": "EIT prediction", "observed": "Cat 2"}
{"compound": "CCCC(C)CO (stereo not shown) [2-Methyl-1-pentanol]", "reportedProperty": "EIT prediction", "observed": "Cat 2"}
{"compound": "CCCCCCCCCCCCCCCC[N+](C)(C)C.[Br-] [Hexadecyltrimethylammonium bromide 6%, Hexadecyltrimethylammonium bromide]", "reportedProperty": "EIT prediction", "observed": "Cat 1"}
{"compound": "CO[Si](CCCNCCN)(OC)OC", "reportedProperty": "EIT prediction", "observed": "Cat 1"}

Lookup: Tell me measured EIT prediction for COC(=O)CS [Methyl thioglycolate] please.
Found: Cat 1

Lookup: Tell me measured EIT prediction for CCN(CC)C(=O)c1cccc(C)c1 [Diethyl toluamide] please.
Found: Cat 2

Lookup: Tell me measured EIT prediction for [H]/N=C(\N/C(=N/[H])NCCCCCCNC(=N)NC(=N)Nc1ccc(Cl)cc1)Nc1ccc(Cl)cc1 [Chlorhexidine] please.
Found: Cat 1

* * *

Tested on: reconstructed human corneal epithelium model (SkinEthic™ HCE)
Conditions: solid product applied pure in powder form, 30±2 mg; second of three index values
Measured Irritation INDEX, listed per entry.

Solved entries (count: 3):
{"compound": "F[B-](F)(F)F.[K+] [Potassium tetrafluoroborate]", "observed": 6}
{"compound": "O=C(Nc1ccc(Cl)cc1)Nc1ccc(Cl)c(Cl)c1", "observed": 0}
{"compound": "CCOc1ccc(Br)cc1 [4-Bromophenetol]", "observed": 2}

Lookup: Tell me measured Irritation INDEX for `CC(C)(O)CCC(C)(C)O` please.
Found: 23

* * *

System: reconstructed human corneal epithelium model (SkinEthic™ HCE)
Conditions: liquid products; category from LII at 100% and 30%
Description: The reconstructed human corneal epithelium model, (SkinEthic™ HCE) was purchased from Episkin in Lyon. The model consists of immortalized human corneal epithelial cells grown in a defined medium at the air-liquid interface. The tissue structure obtained is a multi-layer epithelium similar to the natural tissue structure of the human cornea, comprising 5-7 layers with a surface area of 0.5 cm^2. […] The sample is mixed on a vortex mixer. Turbidity and possible phase separation are assessed by eye. […]
reportedProperty: EIT prediction

Solved entries (count: 5):
{"molecule": "CCC(C)=O [Methyl ethyl ketone]", "observed": "Cat 2"}
{"molecule": "CC(C)(C)CC(C)(C)c1ccc(OCCOCC[N+](C)(C)Cc2ccccc2)cc1 [Benzethonium chloride 10%, Benzethonium chloride]", "observed": "Cat 1"}
{"molecule": "CCN(CC)CCC#N [Diethylaminopropionitrile]", "observed": "Cat 1"}
{"molecule": "CC(C)=O [Acetone 100%, Acetone]", "observed": "Cat 2"}
{"molecule": "O=C1CCCO1 [Gamma-butyrolactone]", "observed": "Cat 2"}

Lookup: Tell me measured EIT prediction for N#CCCCl [3-Chloropropionitrile] please.
Found: Cat 2

Lookup: Tell me measured EIT prediction for C=CCO [Allyl alcohol] please.
Found: Cat 2

* * *

System: reconstructed human corneal epithelium model (SkinEthic™ HCE)
Settings: liquid products; category from LII at 100% and 30%
Description: The reconstructed human corneal epithelium model, (SkinEthic™ HCE) was purchased from Episkin in Lyon. The model consists of immortalized human corneal epithelial cells grown in a defined medium at the air-liquid interface. The tissue structure obtained is a multi-layer epithelium similar to the natural tissue structure of the human cornea, comprising 5-7 layers with a surface area of 0.5 cm^2. […] The sample is mixed on a vortex mixer. Turbidity and possible phase separation are assessed by eye. […]
reportedProperty: EIT prediction

Solved entries (count: 4):
{"compound": "N=C(NCCCCCCNC(=N)NC(=N)Nc1ccc(Cl)cc1)NC(=N)Nc1ccc(Cl)cc1.O=C(O)[C@H](O)[C@@H](O)[C@H](O)[C@H](O)CO.O=C(O)[C@H](O)[C@@H](O)[C@H](O)[C@H](O)CO [Chlorhexidine gluconate (20%), Chlorhexidine gluconate]", "reportedProperty": "EIT prediction", "observed": "Cat 2"}
{"compound": "OCCCCCCCCCl", "reportedProperty": "EIT prediction", "observed": "Cat 1"}
{"compound": "CCCOCC(C)O (stereo not shown)", "reportedProperty": "EIT prediction", "observed": "Cat 1"}
{"compound": "[Na+].[OH-] [Sodium hydroxide 0.3%, Sodium hydroxide]", "reportedProperty": "EIT prediction", "observed": "Cat 2"}

# ---- query compound ----
Lookup: Tell me measured EIT prediction for `CC(C)C=O` please.
Found: Cat 2
